Test system: HCV NS3 helicase NS3h_1b(con1) (Hepatitis C virus genotype 1b, UniProt Q9WMX2)
Construct: truncated C-terminally His-tagged NS3 proteins lacking the N-terminal protease, called NS3h; His-tag (C); made in house
Sequence (Q9WMX2 1192-1657): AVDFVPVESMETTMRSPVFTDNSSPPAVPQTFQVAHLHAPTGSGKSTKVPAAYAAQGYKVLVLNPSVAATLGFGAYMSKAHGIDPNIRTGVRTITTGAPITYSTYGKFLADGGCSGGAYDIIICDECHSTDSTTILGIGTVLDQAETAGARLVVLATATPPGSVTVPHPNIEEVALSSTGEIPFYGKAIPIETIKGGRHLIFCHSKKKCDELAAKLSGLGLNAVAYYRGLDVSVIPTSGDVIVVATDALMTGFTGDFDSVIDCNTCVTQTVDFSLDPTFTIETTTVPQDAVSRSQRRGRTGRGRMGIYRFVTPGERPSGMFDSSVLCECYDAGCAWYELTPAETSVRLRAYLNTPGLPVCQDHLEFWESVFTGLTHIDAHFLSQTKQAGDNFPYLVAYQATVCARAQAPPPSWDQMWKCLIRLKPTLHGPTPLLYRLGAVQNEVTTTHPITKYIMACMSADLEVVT
Experiment: MBHA screen of NCI mechanistic set library at 20 μM (percent inhibition, compound interference)
Type: biochemical
Condition: compounds at 20 μM, MBHA with a DNA substrate; calculated from Equation 1
Experimental endpoint: Inh. (%) (Inhibition)

Compound	Test system	Experimental endpoint	Result
N#Cc1ccccc1NC(=O)C(=O)C(C(=O)c1ccccc1F)C1OC(=O)c2ccccc21 (stereo not shown)	HCV NS3 helicase NS3h_1b(con1) (Hepatitis C virus genotype 1b, UniProt Q9WMX2)	Inh. (%) (Inhibition)	−33.1%
CCCNC1=C(C)C(=O)C2=C(C1=O)[C@H](COC(N)=O)[C@]1(OC)[C@@H]3N[C@@H]3CN21	HCV NS3 helicase NS3h_1b(con1) (Hepatitis C virus genotype 1b, UniProt Q9WMX2)	Inh. (%) (Inhibition)	−25.7%
N[C@@H](CSC(c1ccccc1)(c1ccccc1)c1ccccc1)C(=O)O	HCV NS3 helicase NS3h_1b(con1) (Hepatitis C virus genotype 1b, UniProt Q9WMX2)	Inh. (%) (Inhibition)	−22.5%
Nc1ccccc1N	HCV NS3 helicase NS3h_1b(con1) (Hepatitis C virus genotype 1b, UniProt Q9WMX2)	Inh. (%) (Inhibition)	10.6%

---

Recorded DNA binding (%) by entry
System: MBHA DNA substrate
Experiment: Modified FID assay, SYBR Green I
Type: binding
Condition: SYBR Green I-FID; average (±SD) percent bound at 100 μM

Smiles record	Test system	Unit	DNA binding (%)
Cc1ccc2nc(-c3ccc4nc(-c5ccc(NC(=O)c6ccc(C(F)(F)F)c(F)c6)cc5)sc4c3)sc2c1S(=O)(=O)O	MBHA DNA substrate	%	66
CC(=O)Nc1ccc(-c2nc3ccc(-c4nc5ccc(C)c(S(=O)(=O)O)c5s4)cc3s2)cc1	MBHA DNA substrate	%	48
COc1ccc(S(=O)(=O)Nc2ccc(-c3nc4ccc(-c5nc6ccc(C)c(S(=O)(=O)O)c6s5)cc4s3)cc2)cc1	MBHA DNA substrate	%	69
COc1ccc(C(=O)Nc2ccc(-c3nc4ccc(-c5nc6ccc(C)c(S(=O)(=O)O)c6s5)cc4s3)cc2)cc1	MBHA DNA substrate	%	35
Cc1ccc2nc(-c3ccc4nc(-c5ccc(NC(=O)c6cc(C(F)(F)F)ccc6F)cc5)sc4c3)sc2c1S(=O)(=O)O	MBHA DNA substrate	%	35
Cc1ccc2nc(-c3ccc4nc(-c5ccc(NC(=O)c6ccc7nc(-c8ccc(NC(=O)OCC9c%10ccccc%10-c%10ccccc%109)cc8)sc7c6)cc5)sc4c3)sc2c1S(=O)(=O)O.N	MBHA DNA substrate	%	67

---

Experiment: Aqueous solubility (direct UV kinetic)
Type: physicochemical
Condition: 1×PBS, pH 7.4, aqueous buffer, kinetic from dmso stock; read-out: Aqueous Solubility, PBS
Experimental endpoint: solubility (µg/mL)

Smiles record	Experimental endpoint	Numeric readout
Cc1ccc2nc(-c3ccc4nc(-c5ccc(NC(=O)c6cccc(Cl)c6)cc5)sc4c3)sc2c1S(=O)(=O)O	solubility	0.12

---

Experiment: Absorbance and fluorescence properties
Format: physicochemical
Excerpt: Most of the compounds isolated from the two yellow dyes were fluorescent, absorbing light around 340 nm, and emitting near 420 nm. […] Their relative fluorescence decreased with the length of the benzothiazole chain. None of the compounds absorbed light near either the absorption or emission wavelengths of the Cy5-labeled MBHA substrate, or the wavelengths where the fluorescence of ethidium bromide stained DNA, SYBER green I-stained DNA, NS3-catalyzed peptide cleavage, or ATP hydrolysis were measured. […]

Smiles record	Unit	Absorbance λmax
Cc1ccc2nc(-c3ccc4nc(-c5ccc(NC(=O)c6ccc(F)cc6)cc5)sc4c3)sc2c1S(=O)(=O)O.N	nm	356
Cc1ccc2nc(-c3ccc4nc(-c5ccc(NC(=O)c6ccc7ccccc7c6)cc5)sc4c3)sc2c1S(=O)(=O)O	nm	359
Cc1ccc2nc(-c3ccc4nc(-c5ccc(NC(=O)c6cc(C(F)(F)F)cc(C(F)(F)F)c6)cc5)sc4c3)sc2c1S(=O)(=O)O	nm	355
Cc1ccc2nc(-c3ccc4nc(-c5ccc6nc(-c7ccc8nc(-c9ccc(N)cc9)sc8c7)sc6c5)sc4c3)sc2c1S(=O)(=O)O	nm	382
Cc1ccc2nc(-c3ccc4nc(-c5ccc(NC(=O)c6ccc(Cl)c(Cl)c6)cc5)sc4c3)sc2c1S(=O)(=O)O	nm	356
Cc1ccc2nc(-c3ccc4nc(-c5ccc(N)cc5)sc4c3)sc2c1S(=O)(=O)O	nm	366

---

Test system: NS3h_2a(JFH1) (Hepatitis C virus genotype 2a, UniProt Q99IB8)
Construct: truncated C-terminally His-tagged NS3 proteins lacking the N-terminal protease, called NS3h; His-tag (C); made in house
Sequence (Q99IB8 1196-1661): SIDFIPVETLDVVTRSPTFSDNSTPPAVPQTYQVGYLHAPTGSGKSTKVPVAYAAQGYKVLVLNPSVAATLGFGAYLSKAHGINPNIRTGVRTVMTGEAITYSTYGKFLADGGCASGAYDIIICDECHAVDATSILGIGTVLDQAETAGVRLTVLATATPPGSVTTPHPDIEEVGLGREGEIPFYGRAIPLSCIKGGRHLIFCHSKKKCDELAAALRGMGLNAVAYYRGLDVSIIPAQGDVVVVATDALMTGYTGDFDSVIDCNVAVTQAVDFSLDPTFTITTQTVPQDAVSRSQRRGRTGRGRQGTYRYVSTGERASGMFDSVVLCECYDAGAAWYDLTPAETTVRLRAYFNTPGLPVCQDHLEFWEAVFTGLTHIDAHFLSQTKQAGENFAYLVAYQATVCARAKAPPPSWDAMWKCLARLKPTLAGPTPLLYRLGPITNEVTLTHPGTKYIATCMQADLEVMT
Experiment: MBHA, DNA substrate, genotype 2a helicase
Format: biochemical, hepatitis C virus genotype 2a(JFH1)
Condition: genotype 2a (JFH1); read-out: Target Potency MBHA (IC50 avg., μM) 2a (JFH1) (converted)
molecules and their reported IC50

Smiles record	Test system	IC50 [µM]
Cc1ccc2nc(-c3ccc(NC(=O)c4ccc(NC(=O)c5ccccc5)cc4)cc3)sc2c1S(=O)(=O)O.N	NS3h_2a(JFH1) (Hepatitis C virus genotype 2a, UniProt Q99IB8)	79.2
Cc1ccc2nc(-c3ccc4nc(-c5ccc(NC(=O)c6ccc(CNC(=O)OCC7c8ccccc8-c8ccccc87)cc6)cc5)sc4c3)sc2c1S(=O)(=O)O.N	NS3h_2a(JFH1) (Hepatitis C virus genotype 2a, UniProt Q99IB8)	4.6
Cc1ccc2nc(-c3ccc4nc(-c5ccc(NC(=O)c6ccc(Cl)c(Cl)c6)cc5)sc4c3)sc2c1S(=O)(=O)O	NS3h_2a(JFH1) (Hepatitis C virus genotype 2a, UniProt Q99IB8)	4.5
Cc1ccc2nc(-c3ccc(NC(=O)c4ccc(NC(=O)c5ccc(NC(=O)OCC6c7ccccc7-c7ccccc76)cc5)cc4)cc3)sc2c1S(=O)(=O)O.N	NS3h_2a(JFH1) (Hepatitis C virus genotype 2a, UniProt Q99IB8)	1.9
Cc1ccc2nc(-c3ccc4nc(-c5ccc(NC(=O)c6cccnc6)cc5)sc4c3)sc2c1S(=O)(=O)O	NS3h_2a(JFH1) (Hepatitis C virus genotype 2a, UniProt Q99IB8)	48
Cc1ccc2nc(-c3ccc4nc(-c5ccc(NC(=O)c6ccc7ncoc7c6)cc5)sc4c3)sc2c1S(=O)(=O)O	NS3h_2a(JFH1) (Hepatitis C virus genotype 2a, UniProt Q99IB8)	6.4

---

Experiment: Absorbance and fluorescence properties
Assay type: physicochemical
Condition: 10 μM
Experimental endpoint: Fluorescence RFU@ 10 μM (RFU)

Compound	Numeric readout
Cc1ccc2nc(-c3ccc4nc(-c5ccc(N)cc5)sc4c3)sc2c1S(=O)(=O)O [Compound P2a]	15
Cc1ccc2nc(-c3ccc4nc(-c5ccc(NC(=O)c6cc(C(F)(F)F)cc(C(F)(F)F)c6)cc5)sc4c3)sc2c1S(=O)(=O)O [Compound 24]	121
Cc1ccc2nc(-c3ccc4nc(-c5ccc(NC(=O)c6cccc(Cl)c6)cc5)sc4c3)sc2c1S(=O)(=O)O [Compound 17]	215
Cc1ccc2nc(-c3ccc4nc(-c5ccc(NC(=O)c6ccc7ccccc7c6)cc5)sc4c3)sc2c1S(=O)(=O)O [Compound 33]	236
Cc1ccc2nc(-c3ccc4nc(-c5ccc(NC(=O)c6ccc(C(C)(C)C)cc6)cc5)sc4c3)sc2c1S(=O)(=O)O [Compound 13]	164
Cc1ccc2nc(-c3ccc4nc(-c5ccc(NC(=O)c6ccc(C(F)(F)F)cc6)cc5)sc4c3)sc2c1S(=O)(=O)O [Compound 12]	158

---

Test system: HCV NS3 helicase NS3h_1b(con1) (Hepatitis C virus genotype 1b, UniProt Q9WMX2)
Construct: truncated C-terminally His-tagged NS3 proteins lacking the N-terminal protease, called NS3h; His-tag (C); made in house
Experiment: MBHA screen of NCI mechanistic set library at 20 μM (percent inhibition, compound interference)
Assay type: biochemical
Condition: compounds at 20 μM, MBHA with DNA substrate; calculated from Equation 1
Experimental endpoint: Inh. (%) (Inhibition)

Molecule	Numeric readout
O=C(N=Nc1c(O)[nH]c2c(Cl)cc(Cl)cc12)c1ccccc1O	4.4
CC1(C)C2CCC1(CS(=O)(=O)O)C(=O)C2.CN1C(c2ccccc2)CC(=NO)CC1c1ccccc1 (centres unmarked)	17.2
COc1cc2c(c3oc4cccc(O)c4c(=O)c13)[C@@H]1C=CO[C@@H]1O2	5.4
Cc1ccccc1NC(=O)C(=O)C(C#N)c1ccccc1C (centres unmarked)	4.4
COc1ccc(NC2=NCCO2)c2c1CCCC2	−2.7
COc1ccc(NC(=O)CC(=O)N2N=C(C)C(N=Nc3ccc(S(=O)(=O)c4ccc(N=NC5C(=O)N(C(=O)CC(=O)Nc6ccc(OC)cc6)N=C5C)cc4)cc3)C2=O)cc1 (centres unmarked)	−18.1
N[C@@H](Cc1ccc2oc3cc(=O)c4ccccc4c-3nc2c1)C(=O)O	−11.4
CC(=O)O.Cc1c2cc[n+](CCN3CCCCC3)cc2c(C)c2c1[nH]c1ccc(O)cc12	5.0
CC1=CC(=O)c2cccc(NC3=NCCO3)c21	−1.8
CC[C@@]1(O)C[C@H](O[C@H]2C[C@H](N(C)C)[C@H](O[C@H]3C[C@@H]4O[C@H]5CC(=O)[C@H](C)O[C@H]5O[C@@H]4[C@H](C)O3)[C@H](C)O2)c2c(cc3c(c2O)C(=O)c2c(O)ccc(O)c2C3=O)[C@H]1C(=O)OC	24.2
Cc1cc(-c2nc3ccccc3s2)ccc1N	−7.5
Nc1ccc2nc3ccc(=O)cc-3n(-c3ccccc3)c2c1	−9.7
O=Nc1ccc(O)c2ncccc12	−15.7
CCN(CC)CCCC(C)NC(=O)c1ccc2c(c1)C(=O)c1ccccc1C2=O.Cl (centres unmarked)	−16.9
[Cl][Cd][Cl]	53.4
CC1OC(CC(=O)O)CC2=C1C(=O)c1c(O)cccc1C2=O (centres unmarked)	−14.4
O=c1[nH]c(=O)n(C2CCCO2)cc1F (centres unmarked)	−8.9
